Would you kindly list normalized growth for each of these molecules?
Assay: chemical genetic growth profiling, strain panel (AID 1159580);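 also: tested at 20 µM; growth read once vehicle control cultures reached saturation at 30 °C; 1 = growth at the plate median or of vehicle wells; lower values mean less growth of the strain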
Details: S. cerevisiae deletion strains, growth OD, locus YMR277W, strain FCP1, active compounds read low
In all, about 5,500 compounds went through this assay and about 2,000 (36%) were called active. Roughly 18% stayed inconclusive and do not appear here. The list shows a part of the results.
Give the figure by itself; no unit, no explanation.

Prompt line: // normalized growth lookup, key: `O=C(NCc1ccncc1)c1ccc(-n2cccn2)cc1`
Response line: 0.978

Prompt line: // normalized growth lookup, key: `O=C(Nc1ccc(N2CCOCC2)cc1)c1ccc(-n2cccn2)cc1`
Response line: 0.985

Prompt line: // normalized growth lookup, key: `CCOC(=O)/C(=N/Nc1c(Cl)cccc1Cl)c1csc(N)n1`
Response line: 0.975

Prompt line: // normalized growth lookup, key: `Cc1c(C)c(C)c(CSC(N)=Nc2ccc(F)cc2)c(C)c1C`
Response line: 1

Prompt line: // normalized growth lookup, key: `Cc1nn(Cc2ccc(C(=O)Sc3ccc(C(F)(F)F)cn3)o2)c(C)c1Br`
Response line: 0.963

Prompt line: // normalized growth lookup, key: `O=S(=O)(N/N=C\c1ccc(Cl)cc1)c1ccc(-c2ccccn2)s1`
Response line: 0.978

* * *

Would you kindly list normalized growth for each of these compounds?
Experiment: chemical genetic growth profiling, strain panel (AID 1159580);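 also: tested at 20 µM; growth read once vehicle control cultures reached saturation at 30 °C; 1 = growth at the plate median or of vehicle wells; lower values mean less growth of the strain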
Settings: S. cerevisiae deletion strains, growth OD, locus YHR079C, strain IRE1 (second series), active compounds read low
The campaign covered roughly 5,500 compounds. About 2,000 (36%) were called active. About 18% were inconclusive and are not listed. Some of the results follow.
Give the figure by itself; no unit, no explanation.

Prompt line: // normalized growth lookup, key: `CCCCC1=NC2(CCCC2)C(=O)N1Cc1ccc(-c2ccccc2-c2nn[nH]n2)cc1`
Response line: 0.989

Prompt line: // normalized growth lookup, key: `CCN(CC)CCOc1ccc2c(c1)C(=O)c1cc(OCCN(CC)CC)ccc1-2`
Response line: 0.989

Prompt line: // normalized growth lookup, key: CN(C)CCOC(C)(c1ccccc1)c1ccccn1 (stereo unspecified)
Response line: 0.974

Prompt line: // normalized growth lookup, key: C=CC(C)(O)CC/C=C(\C)CCC=C(C)C (stereo unspecified)
Response line: 0.999

Prompt line: // normalized growth lookup, key: `COc1cc(C(=O)NCc2ccc(OCCN(C)C)cc2)cc(OC)c1OC`
Response line: 0.976

Prompt line: // normalized growth lookup, key: CC(C)=CCC[C@](C)(O)C1CC=C(C)CC1 (stereo partly specified)
Response line: 0.98

Prompt line: // normalized growth lookup, key: `CC/C(=C(\c1ccccc1)c1ccc(OCCN(C)C)cc1)c1ccccc1`
Response line: 0.0574

Prompt line: // normalized growth lookup, key: `C=C[C@](C)(O)CCC=C(C)C`
Response line: 1.01

Prompt line: // normalized growth lookup, key: CCCC1O[C@@H]2CC3C4CCC5=CC(=O)C=CC5(C)C4[C@@H](O)CC3(C)[C@]2(C(=O)CO)O1 (stereo partly specified)
Response line: 1.01

Prompt line: // normalized growth lookup, key: `CCN(CC)CCOc1ccc(/C(=C(\Cl)c2ccccc2)c2ccccc2)cc1`
Response line: 0.0584

Prompt line: // normalized growth lookup, key: COc1ccccc1OCCNCC(O)COc1cccc2[nH]c3ccccc3c12 (stereo unspecified)
Response line: 1.02
